Measured values drawn from ChEMBL document CHEMBL2046395 for this set.

Test system: L6
Assay: Cytotoxicity against rat L6 cells
Type: cell-based
pIC50: −log10 of the molar value.
# if value of pIC50 reaches 4, tag criterion met; if it stays below, tag criterion not met

- molecule: "O=C(NN1Cc2ccccc2C1)c1ccccc1F"
  class_assignment: "criterion not met"
- molecule: "CN1C(=O)C2Cc3ccccc3CN2c2ccc([N+](=O)[O-])cc21 (configuration not stated)"
  class_assignment: "criterion met"
- molecule: "O=C(NN1Cc2ccccc2CN1)c1cc([N+](=O)[O-])ccc1Cl"
  class_assignment: "criterion not met"
- molecule: "O=C(NN(c1ccccc1)c1ccccc1)c1cc([N+](=O)[O-])ccc1Cl"
  class_assignment: "criterion met"
- molecule: "O=c1c2cc([N+](=O)[O-])ccc2[nH]n1Cc1ccccc1"
  class_assignment: "criterion not met"
- molecule: "COc1nn(Cc2cccc(Cn3nc(OC)c4cc([N+](=O)[O-])ccc43)n2)c2ccc([N+](=O)[O-])cc12"
  class_assignment: "criterion not met"
- molecule: "COc1cc([C@@H]2c3cc4c(cc3[C@H](O)[C@H]3COC(=O)[C@H]23)OCO4)cc(OC)c1OC"
  class_assignment: "criterion met"
- molecule: "O=c1[nH]n(-c2ccccc2)c2ccc([N+](=O)[O-])cc12"
  class_assignment: "criterion not met"
- molecule: "COc1nn(Cc2ccccc2Cn2nc(OC)c3ccccc32)c2ccccc12"
  class_assignment: "criterion met"
- molecule: "O=c1[nH]n(Cc2ccccc2F)c2ccc([N+](=O)[O-])cc12"
  class_assignment: "criterion not met"
- molecule: "O=[N+]([O-])c1ccc2[nH]nc(OCc3ccccc3Cl)c2c1"
  class_assignment: "criterion met"

###

Catalogue of IC50 values
Tested on: L6
Assay: Cytotoxicity against rat L6 cells
Type: cell-based

- molecule: "O=C(NN1Cc2ccccc2C1)c1cc([N+](=O)[O-])ccc1F"
  IC50: "> 331 µM"
- molecule: "O=c1c2cc([N+](=O)[O-])ccc2n2n1Cc1ccccc1CC2"
  IC50: "> 338 µM"
- molecule: "O=C(NN(Cc1ccccc1)Cc1ccccc1)c1ccccc1 [N',N'-DIBENZYLBENZOHYDRAZIDE]"
  IC50: "> 316 µM"
- molecule: "CN(C)NC(=O)c1cc([N+](=O)[O-])ccc1Cl"
  IC50: "> 410 µM"
- molecule: "O=C(NN1CCc2ccccc2C1)c1cc([N+](=O)[O-])ccc1F"
  IC50: "> 317 µM"
- molecule: "[O-]C1=N[N+]2(CCCCC2)c2ccccc21"
  IC50: "> 494 µM"
- molecule: "O=C(NN1CCCCC1)c1cc([N+](=O)[O-])ccc1Cl"
  IC50: "> 352 µM"
- molecule: "C[n+]1cccc2c(=O)n3n(c21)Cc1ccccc1C3"
  IC50: "> 263 µM"
- molecule: "O=C(NCc1cc([N+](=O)[O-])ccc1N1CCc2ccccc2C1)NCc1cc([N+](=O)[O-])ccc1N1CCc2ccccc2C1"
  IC50: "> 168 µM"
- molecule: "Cn1[nH]c(=O)c2cc([N+](=O)[O-])ccc21"
  IC50: "> 517 µM"
- molecule: "O=C(NN1Cc2ccccc2C1)c1cc([N+](=O)[O-])ccc1Cl"
  IC50: "19.8 µM"
- molecule: "CN1C(=O)C2CCCCN2c2ccc([N+](=O)[O-])cc21 (stereo unspecified)"
  IC50: "102 µM"
- molecule: "O=C(Cc1cc([N+](=O)[O-])ccc1F)NN1CCCCC1"
  IC50: "> 355 µM"
- molecule: "O=[N+]([O-])c1ccc2c(c1)C([O-])=N[N+]21CCCCCC1"
  IC50: "> 382 µM"
- molecule: "O=c1c2cc([N+](=O)[O-])ccc2n(Cc2ccccc2)n1Cc1ccccc1"
  IC50: "37.3 µM"
- molecule: "O=C(NN1Cc2ccccc2C1)c1ccccc1"
  IC50: "68.4 µM"
